- assay_info: Pharmacokinetic study, single IV bolus in adult male Sprague Dawley rats
- Assay type: in vivo
- measurement_conditions: male, Sprague Dawley, rat, plasma, iv, 5 mg/kg, T1/2α (half-life of distributional phase), 5 mg/kg single IV bolus, male SD rats, n = 3, mean ± SD
value_type: half-life (min)

1. Oc1c(Br)cc(Cl)c2cccnc12 [CLBQ14, 7-bromo-5-chloroquinolin-8-ol]
10.2

---

- assay_info: Pharmacokinetic study, single IV bolus in adult male Sprague Dawley rats
- Format: in vivo
- measurement_conditions: male, Sprague Dawley, rat, plasma, iv, 5 mg/kg, Vss (volume of distribution at steady state), 5 mg/kg single IV bolus, male SD rats, n = 3, mean ± SD
value_type: Vd (L/kg)

1) Oc1c(Br)cc(Cl)c2cccnc12 [CLBQ14, 7-bromo-5-chloroquinolin-8-ol]
23.2

---

- assay_info: Pharmacokinetic study, single IV bolus in adult male Sprague Dawley rats
- Format: in vivo
- measurement_conditions: male, Sprague Dawley, rat, plasma, iv, 10 mg/kg, Estimated total plasma clearance, across the 3 groups (2, 5 and 10 mg/kg IV bolus), male SD rats
value_type: clearance

1) Oc1c(Br)cc(Cl)c2cccnc12
≤ 43.7 mL/min/kg

---

- assay_info: Stability of CLBQ14 in rat plasma samples
- Format: in vitro ADME, Sprague Dawley rat
- measurement_conditions: Sprague Dawley, rat, Short-term (bench-top) stability, mean recovery ± SD
value_type: recovery at 6 h (%)

1) Oc1c(Br)cc(Cl)c2cccnc12 [CLBQ14, 7-bromo-5-chloroquinolin-8-ol]
93.7

---

- assay_info: Pharmacokinetic study, single IV bolus in adult male Sprague Dawley rats
- Type: in vivo
- measurement_conditions: male, Sprague Dawley, rat, plasma, iv, 10 mg/kg, Vss (volume of distribution at steady state), 10 mg/kg single IV bolus, male SD rats, n = 4, mean ± SD
value_type: Vd

1) Oc1c(Br)cc(Cl)c2cccnc12 [CLBQ14, 7-bromo-5-chloroquinolin-8-ol]
27.3 L/kg

---

- assay_info: Pharmacokinetic study, single IV bolus in adult male Sprague Dawley rats
- Format: in vivo
- measurement_conditions: male, Sprague Dawley, rat, plasma, iv, 2 mg/kg
value_type: C0 (ng/mL)

1) Oc1c(Br)cc(Cl)c2cccnc12
1440

---

- assay_info: Pharmacokinetic study, single IV bolus in adult male Sprague Dawley rats
- Type: in vivo
- measurement_conditions: male, Sprague Dawley, rat, plasma, iv, 2 mg/kg, T1/2α (half-life of distributional phase), 2 mg/kg single IV bolus, male SD rats, n = 4, mean ± SD
value_type: half-life (min)

1) Oc1c(Br)cc(Cl)c2cccnc12
9.6

---

- assay_info: Stability of CLBQ14 in rat plasma samples
- Assay type: in vitro ADME, Sprague Dawley rat
- measurement_conditions: Sprague Dawley, rat, Short-term (bench-top) stability, mean recovery ± SD
value_type: recovery at 2 h (%)

1) Oc1c(Br)cc(Cl)c2cccnc12
91.6

---

- assay_info: Pharmacokinetic study, single IV bolus in adult male Sprague Dawley rats
- Format: in vivo
- measurement_conditions: male, Sprague Dawley, rat, plasma, iv, 2 mg/kg, T1/2β (elimination half-life of the beta elimination phase), 2 mg/kg single IV bolus, male SD rats, n = 4, mean ± SD
value_type: half-life (h)

1) Oc1c(Br)cc(Cl)c2cccnc12
14.8

---

- assay_info: Stability of CLBQ14 in rat plasma samples
- Assay type: in vitro ADME, Sprague Dawley rat
- measurement_conditions: Sprague Dawley, rat, Processed sample or auto-sampler stability, mean recovery ± SD, With IS
value_type: recovery at 2 h (%)

1. Oc1c(Br)cc(Cl)c2cccnc12
95.9
